B1: TPR 5TU (parent)
chain: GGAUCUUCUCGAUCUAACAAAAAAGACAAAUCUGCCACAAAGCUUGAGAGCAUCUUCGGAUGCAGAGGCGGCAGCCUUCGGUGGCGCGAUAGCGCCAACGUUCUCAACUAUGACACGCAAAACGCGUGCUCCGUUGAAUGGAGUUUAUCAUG

Variants of: B1
assayNotes: polymerase ribozyme fitness, log enrichment relative to wild type (log ratio); higher = more active; in vitro selection for triplet polymerase activity
This sample holds only a part of the variants without activity.
Measured polymerase ribozyme fitness (log ratio) by item

Here are 5 variants together with their reported answers.
mutationDescriptor	result
G42C C43U C54U A98G A120G	≤ -4.2
G11C U13A A64U G74C C85U C96G U102C	≤ -4.2
U77A G86A C116G A121C	≤ -4.2
C14A U61G U111A A121C	≤ -4.2
A40C A52G G80U C114G G128U G133U	≤ -4.2

Lab note: A24U C57U C69G G84A C87A A115C gave polymerase ribozyme fitness (log ratio) of ≤ -4.2

Lab note: U55A G62U C63G C87U A98U A120U C149G gave polymerase ribozyme fitness (log ratio) of ≤ -4.2

Lab note: A16G A40G G86C gave polymerase ribozyme fitness (log ratio) of ≤ -4.2

Lab note: C14A A17U A21G C54U A60G gave polymerase ribozyme fitness (log ratio) of -3.75
